system: 958667-338-R-J2-PDC tumor spheroids viability; test: Anticancer human tumor 958667-338-R-J2-PDC patient-derived colon adenocarcinoma cell line growth inhibition [PI3K]; details: second compound 0.0316 µM; first compound 0.316 µM; active compounds read low; spheroids with HUVEC and MSC;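 also: spheroids exposed to compounds for seven days before readout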
Parameter: viability, T/C. Scope: all listed entries.
The figure you give is taken to be in %; do not add the unit.

These solved cases illustrate the format of a correct answer.
>>> observed_measurement("CNC(=O)c1ccc(N2C(=S)N(c3ccc(C#N)c(C(F)(F)F)c3)C(=O)C2(C)C)cc1F + CC(Nc1ccc2c(c1)OCCn1cc(N3C(=O)OCC3C(F)F)nc1-2)C(N)=O")
93.6
>>> observed_measurement("C#Cc1c(F)ccc2cc(O)cc(-c3ncc4c(N5CC6CCC(C5)N6)nc(OCC56CCCN5CC(F)C6)nc4c3F)c12 (stereo not given) + COc1c(OCCCN2CCOCC2)ccc2c3n(c(=NC(=O)c4cnc(N)nc4)nc12)CCN3")
73.2
>>> observed_measurement("Cn1ncc(Cl)c1-c1cc(C(=O)NC(CN)Cc2cccc(F)c2)sc1Cl (stereo not given) + CC(Nc1ncnc2nc[nH]c12)c1cc2cccc(Cl)c2c(=O)n1-c1ccccc1")
100
>>> observed_measurement("C=CC(=O)N1CCN(c2nc(=O)n(-c3c(C)ccnc3C(C)C)c3nc(-c4c(O)cccc4F)c(F)cc23)C(C)C1 (stereo not given) + CC(Nc1ncnc2nc[nH]c12)c1cc2cccc(Cl)c2c(=O)n1-c1ccccc1")
104

Switching to the query record.
Please indicate viability, T/C recorded for CC(Cn1ccc(-c2ccc(C#N)c(Cl)c2)n1)NC(=O)c1cc(C(C)O)[nH]n1 (stereo not given) + CC(Nc1ccc2c(c1)OCCn1cc(N3C(=O)OCC3C(F)F)nc1-2)C(N)=O
97.8
